- Test system: Digitaria sanguinalis (DIGSA)
- method: Post-emergence efficacy, glasshouse, evaluated after 13 days
- Type: in vivo
- condition: Digitaria sanguinalis, 312 h; post-emergence application, 500 g/Ha, evaluated after 13 days; read-out: Control of weed species DIGSA (100=total damage to plant; 0=no damage to plant)
Each item that follows carries a reported pest or weed control at 500 g/ha.

[
  {
    "molecule": "O=C(O)CC[n+]1ccc(C(=O)NC2CC2(F)F)cn1 (centres unmarked) [Compound A95]",
    "target-or-system": "Digitaria sanguinalis (DIGSA)",
    "pest or weed control at 500 g/ha / %": 100
  },
  {
    "molecule": "COC(=O)CC[n+]1ccc(C(=O)Nc2nccs2)cn1 [Compound A42]",
    "target-or-system": "Digitaria sanguinalis (DIGSA)",
    "pest or weed control at 500 g/ha / %": 10
  },
  {
    "molecule": "O=C(c1cc[n+](CCS(=O)(=O)[O-])nc1)N1CCCCC1 [Compound A27]",
    "target-or-system": "Digitaria sanguinalis (DIGSA)",
    "pest or weed control at 500 g/ha / %": 40
  },
  {
    "molecule": "CN(C(=O)c1cc[n+](CCS(=O)(=O)O)nc1)c1ccccc1 [Compound A8]",
    "target-or-system": "Digitaria sanguinalis (DIGSA)",
    "pest or weed control at 500 g/ha / %": 20
  },
  {
    "molecule": "Cn1nccc1NC(=O)c1cc[n+](CCC(=O)O)nc1 [Compound A116]",
    "target-or-system": "Digitaria sanguinalis (DIGSA)",
    "pest or weed control at 500 g/ha / %": 60
  },
  {
    "molecule": "CC1(C)CC1NC(=O)c1cc[n+](CCC(=O)O)nc1 (centres unmarked) [Compound A137]",
    "target-or-system": "Digitaria sanguinalis (DIGSA)",
    "pest or weed control at 500 g/ha / %": 100
  },
  {
    "molecule": "O=C(O)CC[n+]1ccc(C(=O)NCC(F)(F)F)cn1 [Compound A47]",
    "target-or-system": "Digitaria sanguinalis (DIGSA)",
    "pest or weed control at 500 g/ha / %": 100
  },
  {
    "molecule": "O=C(O)CC[n+]1ccc(C(=O)N2CCCC2)cn1 [Compound A26]",
    "target-or-system": "Digitaria sanguinalis (DIGSA)",
    "pest or weed control at 500 g/ha / %": 100
  },
  {
    "molecule": "CC(C)NC(=O)c1cc[n+](CCS(=O)(=O)O)nc1 [Compound A5]",
    "target-or-system": "Digitaria sanguinalis (DIGSA)",
    "pest or weed control at 500 g/ha / %": 50
  },
  {
    "molecule": "O=C(NC1CC1)c1cc[n+](CCCOS(=O)(=O)[O-])nc1 [Compound A126]",
    "target-or-system": "Digitaria sanguinalis (DIGSA)",
    "pest or weed control at 500 g/ha / %": 40
  },
  {
    "molecule": "CNC(=O)c1cc[n+](CCS(=O)(=O)[O-])nc1 [Compound A1]",
    "target-or-system": "Digitaria sanguinalis (DIGSA)",
    "pest or weed control at 500 g/ha / %": 90
  },
  {
    "molecule": "CNS(=O)(=O)CCNC(=O)c1cc[n+](CCC(=O)O)nc1 [Compound A111]",
    "target-or-system": "Digitaria sanguinalis (DIGSA)",
    "pest or weed control at 500 g/ha / %": 100
  },
  {
    "molecule": "CC1(NC(=O)c2cc[n+](CCC(=O)O)nc2)CC1 [Compound A92]",
    "target-or-system": "Digitaria sanguinalis (DIGSA)",
    "pest or weed control at 500 g/ha / %": 100
  },
  {
    "molecule": "CCNC(=O)c1cc[n+](CCC(=O)O)nc1 [Compound A43]",
    "target-or-system": "Digitaria sanguinalis (DIGSA)",
    "pest or weed control at 500 g/ha / %": 100
  },
  {
    "molecule": "O=C(O)CC[n+]1ccc(C(=O)N2CCOCC2)cn1 [Compound A29]",
    "target-or-system": "Digitaria sanguinalis (DIGSA)",
    "pest or weed control at 500 g/ha / %": 90
  },
  {
    "molecule": "O=C(Nc1ccccc1)c1cc[n+](CCS(=O)(=O)[O-])nc1 [Compound A7]",
    "target-or-system": "Digitaria sanguinalis (DIGSA)",
    "pest or weed control at 500 g/ha / %": 20
  },
  {
    "molecule": "CC(O)CNC(=O)c1cc[n+](CCC(=O)O)nc1 (centres unmarked) [Compound A128]",
    "target-or-system": "Digitaria sanguinalis (DIGSA)",
    "pest or weed control at 500 g/ha / %": 100
  },
  {
    "molecule": "CCCNC(=O)c1cc[n+](CCC(=O)O)nc1 [Compound A46]",
    "target-or-system": "Digitaria sanguinalis (DIGSA)",
    "pest or weed control at 500 g/ha / %": 90
  },
  {
    "molecule": "Cn1ncnc1CCNC(=O)c1cc[n+](CCC(=O)O)nc1 [Compound A144]",
    "target-or-system": "Digitaria sanguinalis (DIGSA)",
    "pest or weed control at 500 g/ha / %": 80
  },
  {
    "molecule": "CC(C)N(C)C(=O)c1cc[n+](CCC(=O)O)nc1 [Compound A34]",
    "target-or-system": "Digitaria sanguinalis (DIGSA)",
    "pest or weed control at 500 g/ha / %": 70
  }
]
